Lab note: IC50 readings collected with Cathepsin D (CatD) (Homo sapiens (Human)) for the following compounds.
Sequence (P07339 65-412, species assumed): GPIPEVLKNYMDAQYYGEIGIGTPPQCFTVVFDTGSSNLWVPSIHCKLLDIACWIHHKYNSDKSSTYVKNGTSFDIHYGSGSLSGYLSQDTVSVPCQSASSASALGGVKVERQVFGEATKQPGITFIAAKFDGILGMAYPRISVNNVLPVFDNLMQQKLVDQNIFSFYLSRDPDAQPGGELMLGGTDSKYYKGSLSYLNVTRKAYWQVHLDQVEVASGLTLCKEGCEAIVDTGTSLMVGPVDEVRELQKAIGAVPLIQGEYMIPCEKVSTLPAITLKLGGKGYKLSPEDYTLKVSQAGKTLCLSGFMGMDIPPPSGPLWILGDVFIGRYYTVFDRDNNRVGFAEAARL
Property name: IC50 (µM)

>>> df
                                   compound  property_name  recorded_number
0  CC1(C)C(N)=N[C@](C)(c2cc(/C=C(\F)c3cnc(OCC(F)(F)C(F)F)cn3)ccc2F)CS1(=O)=O           IC50             96.2

I: CC1(C)C(N)=N[C@](C)(c2cc(/C=C(\F)c3cc4c(cn3)OCCO4)ccc2F)CS1(=O)=O
II: CCC#C[C@H](C)Oc1cnc(/C(F)=C/c2ccc(F)c([C@]3(C)CS(=O)(=O)C(C)(C)C(N)=N3)c2)cn1 (single isomer, unassigned)
III: CC1(C)C(N)=N[C@](C)(c2cc(/C=C(\F)c3ncc(C#N)cc3Cl)ccc2F)CS1(=O)=O
Exam item: Hi! Can you put these in order of IC50, lowest number first? Your task in answering is to list the labels in the requested order.
Marked response: II, III, I
(II: 26.8 µM, III: 136 µM, I: 335 µM)

* * *

- Tested target: β-secretase (Rattus norvegicus (Rat), UniProt P56819)
- Procedure details: In vivo inhibition of β-secretase: Aβ reduction in rat CSF and brain
- Experimental setup: CSF
Property name: % Aβ reduction in rat CSF at 10 mpk (%)

For orientation, consider the following solved cases.
In [3]: df
Out[3]:
                                   molecule  recorded_number
0  Cc1noc(COc2cnc(/C(F)=C/c3ccc(F)c([C@]4(C)CS(=O)(=O)N(C)C(N)=N4)c3)cn2)n1 [Example 146]               12
1  C#C[C@H](C)Oc1cnc(/C(F)=C/c2ccc(F)c([C@@]3(C)N=C(N)[C@@]4(CF)CC[C@@H]3S4(=O)=O)c2)cn1 [Example 128]               33
2  CC#C[C@H](CC)Oc1cnc(/C(F)=C/c2ccc(F)c([C@]3(C)CS(=O)(=O)C(C)(C)C(N)=N3)c2)cn1 [Example 199]               43
3  C#CCOc1cnc(/C(F)=C/c2cnc(F)c([C@]3(C)CS(=O)(=O)C(C)(C)C(N)=N3)c2)cn1 [Example 205]               68
4  CN1C(N)=N[C@](C)(c2cc(/C=C(\F)c3ccc(C#N)cn3)ccc2F)C2(CC2)S1(=O)=O [Example 127]               64
5  C#CCOc1cnc(/C(F)=C/c2cc(F)c(F)c([C@]3(C)CS(=O)(=O)C(C)(C)C(N)=N3)c2)cn1 [Example 204]               65
6  C#C[C@H](C)Oc1cnc(/C(F)=C/c2ccc(F)c([C@]3(C)CS(=O)(=O)C(C)(C)C(N)=N3)c2)cn1 [Example 160]               52
7  CC1(C)C(N)=N[C@@]2(c3ccc(/C=C(\F)c4ccc(C#N)cn4)cc3F)COC[C@H]2S1(=O)=O [Example 261]               69

A: CN1C(N)=N[C@](C)(c2cc(/C=C(\F)c3cnc(OCc4ncco4)cn3)cc(F)c2F)CS1(=O)=O [Example 166]
B: C#C[C@H](C)Oc1cnc(/C(F)=C/c2ccc(F)c([C@@]3(C)N=C(N)N(C)S(=O)(=O)C3(C)C)c2)cn1 [Example 186]
Exam item: Of A and B , whose reported % Aβ reduction in rat CSF at 10 mpk is the larger number? Could you answer with the label of the item you picked?
Marked response: A
(A: 45%, B: 19%)

* * *

pIC50: −log10 of the molar value.
Lab note: pIC50 readings collected with Cathepsin D (CatD) (Homo sapiens (Human)) for the following compounds.
Property name: pIC50

>>> df
                                   compound  recorded_number
0  CN1C(N)=N[C@](C)(c2cc(/C=C(\F)c3ccc4c(c3)OCCO4)ccc2F)CS1(=O)=O             4.25
1  CC#C[C@H](C)Oc1cnc(/C(F)=C/c2ccc(F)c([C@]3(C)CS(=O)(=O)C(C)(C)C(N)=N3)c2)cn1 (single isomer, unassigned)             4.10
2  CC1(C)C(N)=N[C@@]2(c3ccc(/C=C(\F)c4ccc(C#N)cn4)cc3F)COC[C@H]2S1(=O)=O             3.75

* * *

- Tested target: UniProtKB P56817
- Sequence (P56817 46-501): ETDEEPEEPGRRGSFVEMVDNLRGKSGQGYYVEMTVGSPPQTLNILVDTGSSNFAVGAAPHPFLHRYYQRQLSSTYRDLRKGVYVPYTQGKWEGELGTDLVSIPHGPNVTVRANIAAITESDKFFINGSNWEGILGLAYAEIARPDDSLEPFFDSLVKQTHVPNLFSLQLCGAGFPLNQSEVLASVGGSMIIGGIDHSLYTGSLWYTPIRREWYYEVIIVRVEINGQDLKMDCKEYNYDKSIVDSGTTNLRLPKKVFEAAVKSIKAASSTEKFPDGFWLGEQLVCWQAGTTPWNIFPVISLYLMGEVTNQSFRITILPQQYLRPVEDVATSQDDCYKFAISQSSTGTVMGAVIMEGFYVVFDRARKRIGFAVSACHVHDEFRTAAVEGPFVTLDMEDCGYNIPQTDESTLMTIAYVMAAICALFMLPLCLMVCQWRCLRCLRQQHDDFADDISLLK
- Procedure details: In vitro enzymatic BACE1 FRET assay
- Type: biochemical
- Experimental setup: read-out: BACE1 Enzyme IC50
pIC50: −log10 of the molar value.
Property name: pIC50

For orientation, consider the following solved cases.
>>> print(df.to_string())
                                   molecule  recorded_number
0  CN1C(N)=N[C@](C)(c2cc(/C=C(\F)c3cc(C#N)c(Cl)cn3)ccc2F)CS1(=O)=O             7.08
1  C#CCOc1cnc(/C(F)=C/c2ccc(F)c([C@@]3(C)N=C(N)C(C)(C)S(=O)(=O)C3(F)F)c2)cn1             6.78
2  C#C[C@H](C)Oc1cnc(/C(F)=C/c2ccc(F)c([C@]3(C)CS(=O)(=O)C(C)(C)C(N)=N3)c2)cn1             9.00
3  C#CCOc1cnc(/C(F)=C/c2ccc(F)c([C@@]3(C)N=C(N)C(C)(C)S(=O)(=O)[C@H]3F)c2)cn1 (single isomer, unassigned)             7.74
4  C[C@]1(c2cc(/C=C(\F)c3cnc(OCC4CC4)cn3)ccc2F)N=C(N)[C@@]2(CF)CC[C@@H]1S2(=O)=O             7.46

I: COc1cc(/C(F)=C/c2ccc(F)c([C@]3(C)CS(=O)(=O)N(C)C(N)=N3)c2)ncc1Cl
II: CCC#C[C@@H](C)Oc1cnc(/C(F)=C/c2ccc(F)c([C@]3(C)CS(=O)(=O)C(C)(C)C(N)=N3)c2)cn1 (single isomer, unassigned)
Exam item: Of I and II , whose reported pIC50 is the larger number? Could you answer with the label of the item you picked?
Marked response: I

a: CN1C(N)=N[C@](C)(c2cc(/C=C(\F)c3cc4ccccc4cn3)ccc2F)CS1(=O)=O
b: C[C@]1(c2cc(/C=C(\F)c3cnc(OCCF)cn3)ccc2F)N=C(N)[C@@]2(CF)CC[C@@H]1S2(=O)=O
Exam item: Pick one: a or b . Which one has the lower reported pIC50? Could you answer with the label of the item you picked?
Marked response: a

I: Cc1cc(C#N)cnc1/C(F)=C/c1ccc(F)c([C@]2(C)CS(=O)(=O)N(C)C(N)=N2)c1
II: CN1C(N)=N[C@](C)(c2cc(/C=C(\F)c3cnc(OCC(F)(F)F)cn3)ccc2F)C2(CC2)S1(=O)=O
Exam item: Pick one: I or II . Which one has the lower reported pIC50? Could you answer with the label of the item you picked?
Marked response: II
(II: 6.88, I: 8.30)

P: COc1cnc(/C(F)=C/c2ccc(F)c([C@]3(C)CS(=O)(=O)C(C)(C)C(N)=N3)c2)cn1
Q: C[C@]1(c2cc(/C=C(\F)c3cnc(OCC(F)(F)F)cn3)ccc2F)N=C(N)[C@@]2(CF)CC[C@@H]1S2(=O)=O
Exam item: Pick one: P or Q . Which one has the lower reported pIC50? Could you answer with the label of the item you picked?
Marked response: P
(P: 6.72, Q: 7.55)

* * *

- Tested target: UniProtKB P56817
- Procedure details: In vitro enzymatic BACE1 FRET assay
- Format: biochemical
- Experimental setup: read-out: BACE1 Enzyme IC50
Property name: IC50 (nM)

For orientation, consider the following solved cases.
>>> df
                                   compound  recorded_number
0  CN1C(N)=N[C@](C)(c2cc(/C=C(\F)c3cnc(C#CC4CC4)cn3)ccc2F)CS1(=O)=O [Example 248]                3
1  CC#CCOc1cnc(/C(F)=C/c2ccc(F)c([C@@]3(C)N=C(N)[C@@]4(CF)CC[C@@H]3S4(=O)=O)c2)cn1 [Example 137]                1
2  C#C[C@H](C)Oc1cnc(/C(F)=C/c2ccc(F)c([C@@]3(C)N=C(N)[C@@]4(CF)CC[C@@H]3S4(=O)=O)c2)cn1 [Example 128]                4
3  C#CCOc1cnc(/C(F)=C/c2ccc(F)c([C@@]3(C)N=C(N)N(C)S(=O)(=O)C34CC4)c2)cn1 [Example 138]               16

I: CC1(C)C(N)=N[C@](C)(c2cc(/C=C(\F)c3cnc(OCc4ccncc4)cn3)ccc2F)CS1(=O)=O [Example 210]
II: CC1(C)C(N)=N[C@](C)(c2cc(/C=C(\F)c3ncc(C(F)(F)F)cc3Cl)ccc2F)CS1(=O)=O [Example 264]
III: CN1C(N)=N[C@](C)(c2cc(/C=C(\F)C3CCOCC3)cc(F)c2F)CS1(=O)=O [Example 110]
IV: C[C@@H](CO)Oc1cnc(/C(F)=C/c2ccc(F)c([C@]3(C)CS(=O)(=O)C(C)(C)C(N)=N3)c2)cn1 [Example 218]
Exam item: Highest IC50 first, then in falling order down to the smallest. Your task in answering is to list the labels in the requested order.
Marked response: I, III, IV, II
(I: 1720 nM, III: 709 nM, IV: 180 nM, II: 10 nM)
